Hey, just so you know, these numbers are from ChEMBL document CHEMBL4622870.

- Tested on: Pichia kudriavzevii
- test-protocol: Antifungal activity against Candida krusei assessed as fungal growth inhibition at 100 ug/ml by micro-dilution method relative to control
- Format: functional
- reported-conditions: read-out: GI
property-measured: inhibition of growth at 100 µg/mL (%)
Provide the reading as a plain figure in %.

Enquiry: Please report the recorded inhibition of growth at 100 µg/mL for `O=C1CC[C@@H](C(=O)N/N=C/c2c(Cl)cccc2Cl)N1` .
Return: 0

Enquiry: Ok, now O=C1CCC(NNc2ccc(C(F)(F)F)cc2)N1 (racemic)
Return: 51

Enquiry: Ok, now `O=C1CC[C@@H](C(=O)N/N=C/CCc2ccccc2)N1`
Return: 0

Enquiry: Ok, now `O=C1CC[C@@H](C(=O)N/N=C/c2ccc([N+](=O)[O-])cc2)N1`
Return: 22

Enquiry: Ok, now `O=C1CC[C@@H](C(=O)N/N=C/c2ccccc2)N1`
Return: 40

Enquiry: Ok, now CC1(C)C2CC=C(/C=N/NC(=O)[C@@H]3CCC(=O)N3)C1C2 (stereo partly specified)
Return: 0

Enquiry: Ok, now O=C1CCC(NNc2ccccn2)N1 (racemic)
Return: 0

Enquiry: Ok, now `O=C1CC[C@@H](C(=O)N/N=C/c2ccc(Cl)nc2)N1`
Return: 2

Enquiry: Ok, now `O=C1CC[C@@H](C(=O)N/N=C/c2ccc(C(F)(F)F)cc2)N1`
Return: 21

Enquiry: Ok, now `N#Cc1ccc(/C=N/NC(=O)[C@@H]2CCC(=O)N2)cc1`
Return: 10

Enquiry: Ok, now `O=C1CC[C@@H](C(=O)N/N=C/c2c(F)c(F)c(F)c(F)c2F)N1`
Return: 0
